Each entry below lists one item and its recorded GFP+% of LAIR1 reporter cells, collagen I coated, soluble Ab and K562 cells value.
Molecular target: T1, LAIR1 on LAIR1 reporter cells (human, UniProt Q6GTX8 22-165, limits assumed); note: test concentration or dose not given here
T1 chain: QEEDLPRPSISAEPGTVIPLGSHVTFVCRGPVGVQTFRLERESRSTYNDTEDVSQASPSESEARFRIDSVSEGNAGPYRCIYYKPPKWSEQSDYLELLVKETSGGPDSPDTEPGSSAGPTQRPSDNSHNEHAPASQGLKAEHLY
Test: cell-based or functional assay
Give the value in % but do not write % after it.

Recorded GFP+% of LAIR1 reporter cells, collagen I coated, soluble Ab and K562 cells, per entry:
[[record]]
binder = "LA-222 (antibody, V domains shown, Rabbit monoclonal IgG) VH: EQSVEESGGDLVKPGASLTLTCTASGFSFTYWICWVRQAPGKGLEWIACIYAGSSGDTYYASWAKGRFTISKTSSTTVTLQMTSLTAADTATYFCARSPDYVAWGYDLWGPGTRVTVSS VL: ELVLTQTPASVSAAVGGTVTINCQASQSIGTNLVWYQQKPGQPPKLLFYYASTLASGVPSRFRGSRSGTEYTLTISDLECADAATYYCQCIYYGGNYGHTFGGGTEVVVK"
output_unit = "%"
measured_result = 0.792

[[record]]
binder = "LA-252 (antibody, V domains shown, Rabbit monoclonal IgG; Called a potential antagonist antibody) VH: EQSVEESGGRLVTPGTPLTLTCTASGFTISDYHMCWVRQAPGKGLEWIGLIRASHSTAYASWANGRFTISRTSTTVDLKITSPTSEDTATYFCARYGGSGIGCNLWGPGTLVTISS VL: ELVLTQTPASVSEPVGGTVTIKCQASQSIDSNLAWYQQKPGQPPKQLIYAVSNLASGVPSRFKGSGSGTEFTLTISDLECADAASYYCECTYYGNSYVGGFGGGTEVEIK"
output_unit = "%"
measured_result = 0.698


Now for the binder whose GFP+% of LAIR1 reporter cells, collagen I coated, soluble Ab and K562 cells we want.
## Task Given the entry LA-121 (antibody, V domains shown, Rabbit monoclonal IgG) VH: EQSVEESGGRLVTPGTPLTLTCTASGFSLYKYNIQWVRQAPGKGLEYIGASTYAGYTYYASWAIGRVTISRTSTTVDLKMTSPTTEDTATYFCARHIDGDYSGYALWGPGTLVTISS VL: ELDLTQTPASVSAAVGGTVTIKCQASQSIDTWFGWYQQKPGQSPKLLIYGASKLASGVPPRFKGSGSGTEFTLTISDLECADAATYYCQNTYYGVRYLGGAFGGGTEVEIK , report its measured GFP+% of LAIR1 reporter cells, collagen I coated, soluble Ab and K562 cells.
## Result 0.891
